System: Rattus norvegicus
Assay: Hypotensive activity in normotensive anesthetized Wistar rat assessed as systolic blood pressure at 1 mg/kg, iv measured 30 mins post dose (reference value: 107.4 to 148.3 mmHg)
Assay type: functional
Label satisfied when Activity is strictly below 100 mmHg; otherwise label not satisfied.

Hi there! Is Activity for Cc1cccc(Cl)c1OCCCCN1CCN(c2ccccc2)CC1.Cl.Cl below 100 mmHg, do you know?
not satisfied

---

Record form. Attribute: TIME. Fill in for each entry.
Test: Antidepressant-like activity in albino Swiss (CD-1) mouse assessed as immobility time at 10 mg/kg, ip administered 30 mins prior to test measured for last 4 mins of 6 mins observation by forced swim test (reference value: 178.3 +/- 12.3 sec)
Type: functional, organism-based
One number for each entry, in h.

Some solved cases for reference:
>>> recorded_number("COc1ccccc1N1CCN(CCCCOc2c(C)cccc2C)CC1.Cl")
0.0398
>>> recorded_number("Cc1cccc(OCCN2CCN(c3ccccc3)CC2)c1C.Cl.Cl")
0.0446
>>> recorded_number("Cc1cccc(OCCCN2CCN(c3ccccc3)CC2)c1C.Cl.Cl")
0.048

Batch request: TIME for each of the following compounds.
1. COc1ccccc1N1CCN(CCOCCOc2cccc(C)c2C)CC1.Cl.Cl
2. Cc1cccc(Cl)c1OCCCCN1CCN(c2ccccc2)CC1.Cl.Cl

0.0331
0.0193

---

Test system: Rattus norvegicus
Test: Hypotensive activity in normotensive anesthetized Wistar rat assessed as diastolic blood pressure at 1 mg/kg, iv measured 60 mins post dose (reference value: 81.6 to 115.2 mmHg)
Type: functional
Please respond with yes (1) when measured Activity is strictly beneath 100 mmHg, and with no (0) in all other cases.

These recorded examples may help you get a feel for the data.
>>> discrete_label("Cc1cccc(Cl)c1OCCCCN1CCN(c2ccccc2)CC1.Cl.Cl")
"yes (1)"
>>> discrete_label("Cc1cccc(OCCCN2CCN(c3ccccc3)CC2)c1C.Cl.Cl")
"no (0)"
>>> discrete_label("COc1ccccc1N1CCN(CCOCCOc2cccc(C)c2C)CC1.Cl.Cl")
"no (0)"
>>> discrete_label("COc1ccccc1N1CCN(CCCCOc2c(C)cccc2C)CC1.Cl")
"no (0)"

Okay, now this molecule:
Please determine if Cc1cccc(OCCN2CCN(c3ccccc3)CC2)c1C.Cl.Cl is below 100 mmHg in terms of Activity.
yes (1)

---

Species on record: Rattus norvegicus
Test: Selectivity ratio of Ki for rat brain cerebral cortex alpha2 adrenergic receptor to Ki for rat brain cerebral cortex alpha1 adrenergic receptor
assay.metric: Ratio Ki
One number for each entry.

Guide cases for Ratio Ki, answers given:
>>> recorded_number("COc1ccccc1N1CCN(CCCOc2cccc(C)c2C)CC1.Cl")
13.3
>>> recorded_number("COc1ccccc1N1CCN(CCOCCOc2cccc(C)c2C)CC1.Cl.Cl")
31.3
>>> recorded_number("Cc1cccc(Cl)c1OCCCCN1CCN(c2ccccc2)CC1.Cl.Cl")
8.48
>>> recorded_number("Cc1cccc(OCCCN2CCN(c3ccccc3)CC2)c1C.Cl.Cl")
24.6
>>> recorded_number("COc1ccccc1N1CCN(CCCOc2c(C)cccc2C)CC1.Cl")
142
>>> recorded_number("Cc1cccc(OCCN2CCN(c3ccccc3)CC2)c1C.Cl.Cl")
1.82

Here's the next entry for you.
Requested field: Ratio Ki. Item: COc1ccccc1N1CCN(CCCCOc2c(C)cccc2C)CC1.Cl
15.8

---

Assign Ki to each entry below.
Target: Adrenergic receptor alpha-1 (Rattus norvegicus, UniProt P15823+P23944+P43140)
Assay: Displacement of [3H]prazosin from alpha1 adrenergic receptor in rat brain cerebral cortex after 30 mins by microbeta scintillation counting method
Format: tissue-based
Give bare numbers, in nM.

>>> recorded_number("Cc1cccc(OCCCN2CCN(c3ccccc3)CC2)c1C.Cl.Cl")
33

Hey, can you go through the list below and give me Ki for every item?
1. Cc1cccc(OCCN2CCN(c3ccccc3)CC2)c1C.Cl.Cl
2. Cc1cccc(Cl)c1OCCCCN1CCN(c2ccccc2)CC1.Cl.Cl
3. COc1ccccc1N1CCN(CCOCCOc2cccc(C)c2C)CC1.Cl.Cl
4. COc1ccccc1N1CCN(CCCCOc2c(C)cccc2C)CC1.Cl

[159, 59.6, 28.5, 23.5]

---

System: Rattus norvegicus
Experiment: Hypotensive activity in normotensive anesthetized Wistar rat assessed as diastolic blood pressure at 1 mg/kg, iv measured 10 mins post dose (reference value: 81.6 to 115.2 mmHg)
Format: functional
assay.metric: Activity (mmHg)
Answers are plain numbers, in mmHg.

# example entries with known answers
>>> recorded_number("COc1ccccc1N1CCN(CCOCCOc2cccc(C)c2C)CC1.Cl.Cl")
106
>>> recorded_number("Cc1cccc(OCCCN2CCN(c3ccccc3)CC2)c1C.Cl.Cl")
112.8
>>> recorded_number("Cc1cccc(Cl)c1OCCCCN1CCN(c2ccccc2)CC1.Cl.Cl")
102.2

Batch of 2 molecules: report Activity for each.
1. Cc1cccc(OCCN2CCN(c3ccccc3)CC2)c1C.Cl.Cl
2. COc1ccccc1N1CCN(CCCCOc2c(C)cccc2C)CC1.Cl

1. 75
2. 105.2

---

Biological target: Adrenergic receptor alpha-2 (Rattus norvegicus, UniProt P22086+P19328+P22909)
Experiment: Displacement of [3H]clonidine from alpha2 adrenergic receptor in rat brain cerebral cortex after 25 mins by microbeta scintillation counting method
Format: tissue-based
assay.metric: Ki
Quick note: unit goes after the number.

>>> result("COc1ccccc1N1CCN(CCCCOc2c(C)cccc2C)CC1.Cl")
"370.5 nM"
>>> result("Cc1cccc(Cl)c1OCCCCN1CCN(c2ccccc2)CC1.Cl.Cl")
"505.7 nM"
>>> result("COc1ccccc1N1CCN(CCOCCOc2cccc(C)c2C)CC1.Cl.Cl")
"893 nM"
>>> result("Cc1cccc(OCCN2CCN(c3ccccc3)CC2)c1C.Cl.Cl")
"289 nM"

Next:
Consider the molecule Cc1cccc(OCCCN2CCN(c3ccccc3)CC2)c1C.Cl.Cl and give its measured Ki.
810 nM

---

Target: 5-hydroxytryptamine receptor 1A (Homo sapiens, UniProt P08908)
Sequence (P08908 whole entry): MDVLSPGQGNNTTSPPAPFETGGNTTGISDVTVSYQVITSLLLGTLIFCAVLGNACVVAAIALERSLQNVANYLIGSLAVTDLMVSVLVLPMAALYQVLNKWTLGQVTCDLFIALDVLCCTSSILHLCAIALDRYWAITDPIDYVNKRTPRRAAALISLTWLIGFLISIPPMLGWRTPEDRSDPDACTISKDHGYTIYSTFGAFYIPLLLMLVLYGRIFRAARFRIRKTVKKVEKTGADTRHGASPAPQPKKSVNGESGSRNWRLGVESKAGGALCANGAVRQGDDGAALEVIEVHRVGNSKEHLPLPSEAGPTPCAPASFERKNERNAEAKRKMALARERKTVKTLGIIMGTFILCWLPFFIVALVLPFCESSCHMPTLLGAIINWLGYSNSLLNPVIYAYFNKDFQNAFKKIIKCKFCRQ
Test: Displacement of [3H]8-OH-DPAT from human recombinant 5-HT1A receptor expressed in membranes after 60 mins by microbeta scintillation counting method
// classify: if (Ki < 5 nM) 1 else 0

>>> discrete_label("Cc1cccc(OCCCN2CCN(c3ccccc3)CC2)c1C.Cl.Cl")
0
>>> discrete_label("Cc1cccc(OCCN2CCN(c3ccccc3)CC2)c1C.Cl.Cl")
0
>>> discrete_label("COc1ccccc1N1CCN(CCCCOc2c(C)cccc2C)CC1.Cl")
1

Now for another entry.
API: query returns whether the molecule falls strictly under 5 nM in Ki. Query: Cc1cccc(Cl)c1OCCCCN1CCN(c2ccccc2)CC1.Cl.Cl
1

---

Test system: Rattus norvegicus
Test: Hypotensive activity in normotensive anesthetized Wistar rat assessed as systolic blood pressure at 1 mg/kg, iv measured 30 mins post dose (reference value: 107.4 to 148.3 mmHg)
Assay type: functional
Hi there, I'd appreciate the recorded Activity for every entry that follows.
Numbers only, in mmHg.

// below: answered molecules
>>> recorded_number("Cc1cccc(OCCN2CCN(c3ccccc3)CC2)c1C.Cl.Cl")
93
>>> recorded_number("COc1ccccc1N1CCN(CCCCOc2c(C)cccc2C)CC1.Cl")
125.5
>>> recorded_number("COc1ccccc1N1CCN(CCOCCOc2cccc(C)c2C)CC1.Cl.Cl")
131

Field: next molecule
Given the molecule Cc1cccc(OCCCN2CCN(c3ccccc3)CC2)c1C.Cl.Cl , what is its reported Activity?
135.8
